Measured values drawn from patent US12678463B2 for this set.

Catalogue of secreted CXCL8 concentration readings, one per entry.
- Tested on: AdMSCs
- METHOD NOTES: ELISA of secreted inflammatory factors in culture media of AdMSCs
- Format: cell-based, human
- RUN PARAMETERS: LPS-stimulated, AIDs-treated 24 h; control + LPS 2373 ± 109
QUANTITY KIND: secreted CXCL8 concentration (pg/mL)

INSERT INTO assay_data (molecule, assay_system, obs_value) VALUES
  ('O=C(O)Cc1ccccc1Nc1c(Cl)cccc1Cl [diclofenac]', 'AdMSCs', 2807),
  ('CC(C(=O)O)c1cccc(C(=O)c2ccccc2)c1 (centres unmarked) [ketoprofen]', 'AdMSCs', 2509),
  ('CC(=O)Nc1ccc(O)cc1 [paracetamol]', 'AdMSCs', 623),
  ('C[C@]12C=CC(=O)C=C1CC[C@@H]1[C@@H]2[C@@H](O)C[C@@]2(C)[C@H]1CC[C@]2(O)C(=O)CO [prednisolone]', 'AdMSCs', 402),
  ('Cc1c(N(C)CS(=O)(=O)O)c(=O)n(-c2ccccc2)n1C [metamizole (Analgin™), metamizole]', 'AdMSCs', 1816);

----------
- System: AdMSCs
- METHOD NOTES: ELISA of secreted inflammatory factors in culture media of AdMSCs
- Assay type: cell-based, human
- RUN PARAMETERS: AIDs-treated 24 h, no LPS; control 277 ± 12.7
Catalogue of secreted CXCL8 concentration readings, one per entry.
QUANTITY KIND: secreted CXCL8 concentration

INSERT INTO results (compound, assay_system, quantity_kind, obs_value) VALUES
  ('CC(=O)Nc1ccc(O)cc1', 'AdMSCs', 'secreted CXCL8 concentration', '11 ± 0.1 pg/mL'),
  ('Cc1c(N(C)CS(=O)(=O)O)c(=O)n(-c2ccccc2)n1C', 'AdMSCs', 'secreted CXCL8 concentration', '341 ± 4.7 pg/mL'),
  ('C[C@]12C=CC(=O)C=C1CC[C@@H]1[C@@H]2[C@@H](O)C[C@@]2(C)[C@H]1CC[C@]2(O)C(=O)CO', 'AdMSCs', 'secreted CXCL8 concentration', '35 ± 0.1 pg/mL'),
  ('CC(C(=O)O)c1cccc(C(=O)c2ccccc2)c1 (stereo not shown)', 'AdMSCs', 'secreted CXCL8 concentration', '301 ± 0.3 pg/mL');

----------
Catalogue of secreted IL6 concentration readings, one per entry.
- System: AdMSCs
- METHOD NOTES: ELISA of secreted inflammatory factors in culture media of AdMSCs
- Format: cell-based, human
- RUN PARAMETERS: AIDs-treated 24 h, no LPS; control 40 ± 2
QUANTITY KIND: secreted IL6 concentration (pg/mL)

INSERT INTO measurements (compound, obs_value) VALUES
  ('CC(C(=O)O)c1cccc(C(=O)c2ccccc2)c1 (centres unmarked) [ketoprofen]', 10),
  ('O=C(O)Cc1ccccc1Nc1c(Cl)cccc1Cl [diclofenac]', 50),
  ('C[C@]12C=CC(=O)C=C1CC[C@@H]1[C@@H]2[C@@H](O)C[C@@]2(C)[C@H]1CC[C@]2(O)C(=O)CO [prednisolone]', 30),
  ('Cc1c(N(C)CS(=O)(=O)O)c(=O)n(-c2ccccc2)n1C [metamizole (Analgin™), metamizole]', 30),
  ('CC(=O)Nc1ccc(O)cc1 [paracetamol]', 0);
